Values were extracted from the CombiSolv-Exp solvation set (Vermeire and Green 2021).

The reader will find reported solvation free energy, 298 K values listed item by item below.
assay method text: solvent given as SMILES
measurement parameters: in NC=O
outcome measure: solvation free energy, 298 K (kcal/mol)

compound: CCCCCCC(C)=O
data value: -5.06

compound: CCCCCO
data value: -5.65

compound: CCCO
data value: -4.84

compound: CC(C)Cc1ccc(C(C)C(=O)O)cc1 (stereo not given)
data value: -10.9

compound: CCCC=O
data value: -3.52

compound: Cc1ccc(C)cc1
data value: -3.27

compound: Fc1ccccc1
data value: -2.8

compound: Brc1ccccc1
data value: -4.11

compound: ClCCl
data value: -2.66

compound: Cc1ccccc1
data value: -3.02

compound: Cc1ccccc1C
data value: -3.55

compound: CN1C(C(=O)Nc2ccccn2)=C(O)c2ccccc2S1(=O)=O
data value: -19.3

compound: COC(=O)c1ccc(O)cc1
data value: -12.1

compound: CCCCCC(C)=O
data value: -4.75

compound: C1CCCCC1
data value: -1.36

compound: c1ccccc1
data value: -2.69

compound: Clc1ccccc1
data value: -3.58

compound: Clc1ccccc1Cl
data value: -4.55

compound: CC(=O)CCCC(C)C
data value: -4.76

compound: CCCCCCCC=O
data value: -4.31

compound: CCCCOC(C)=O
data value: -4.07

compound: C=CCCCCC
data value: -1.24

compound: ClC(Cl)(Cl)Cl
data value: -2.16

compound: COC=O
data value: -3.07

compound: CCC=O
data value: -3.26

compound: COC(C)=O
data value: -3.27

compound: CCCCCCCCC=O
data value: -4.37

compound: O=C(O)c1cccnc1Nc1cccc(C(F)(F)F)c1
data value: -16.1

compound: C1=CCCCC1
data value: -1.87

compound: CCCCCCCO
data value: -6.38

---

assay method text: solvent given as SMILES
measurement parameters: in CCCCOCCO

structure string: O=C=O
unit string: kcal/mol
solvation free energy, 298 K: -0.26

structure string: O=C(O)c1ccc([N+](=O)[O-])cc1
unit string: kcal/mol
solvation free energy, 298 K: -12.5

structure string: O=c1c2ccccc2sc2ccccc12
unit string: kcal/mol
solvation free energy, 298 K: -12.4

structure string: CC(=O)Nc1ccc(O)cc1
unit string: kcal/mol
solvation free energy, 298 K: -15.8

structure string: O=C(C(=O)c1ccccc1)c1ccccc1
unit string: kcal/mol
solvation free energy, 298 K: -11.8

---

assay method text: solvent given as SMILES
measurement parameters: in CC(C)=O
Listing: solvation free energy, 298 K of selected compounds

compound: COC(=O)c1ccc(O)cc1
solvation free energy, 298 K / kcal/mol: -12.3
//
compound: C#CC
solvation free energy, 298 K / kcal/mol: -2.48
//
compound: CC(C(=O)O)c1ccc(-c2ccccc2)c(F)c1 (stereo unspecified)
solvation free energy, 298 K / kcal/mol: -16.1
//
compound: ClC(Cl)(Cl)Cl
solvation free energy, 298 K / kcal/mol: -4.15
//
compound: O=C(O)c1cccnc1Nc1cccc(C(F)(F)F)c1
solvation free energy, 298 K / kcal/mol: -17.7
//
compound: O=C(O)CCCCC(=O)O
solvation free energy, 298 K / kcal/mol: -13.1
//
compound: CNC=O
solvation free energy, 298 K / kcal/mol: -7.35
//
compound: O=[N+]([O-])c1ccc(CCl)cc1
solvation free energy, 298 K / kcal/mol: -10
//
compound: C=C(C)C1CCC2(CO)CCC3(C)C(CCC4C5(C)CCC(O)C(C)(C)C5CCC43C)C12 (stereo unspecified)
solvation free energy, 298 K / kcal/mol: -27.9
//
compound: ClCCl
solvation free energy, 298 K / kcal/mol: -4.13
//
compound: [N-]=[N+]=O
solvation free energy, 298 K / kcal/mol: -1.05
